All figures here come from PubChem BioAssay (Tox21).

- Tested On: D(2) dopamine receptor (Homo sapiens) (UniProt P14416)
- Sequence (P14416 whole entry, looked up): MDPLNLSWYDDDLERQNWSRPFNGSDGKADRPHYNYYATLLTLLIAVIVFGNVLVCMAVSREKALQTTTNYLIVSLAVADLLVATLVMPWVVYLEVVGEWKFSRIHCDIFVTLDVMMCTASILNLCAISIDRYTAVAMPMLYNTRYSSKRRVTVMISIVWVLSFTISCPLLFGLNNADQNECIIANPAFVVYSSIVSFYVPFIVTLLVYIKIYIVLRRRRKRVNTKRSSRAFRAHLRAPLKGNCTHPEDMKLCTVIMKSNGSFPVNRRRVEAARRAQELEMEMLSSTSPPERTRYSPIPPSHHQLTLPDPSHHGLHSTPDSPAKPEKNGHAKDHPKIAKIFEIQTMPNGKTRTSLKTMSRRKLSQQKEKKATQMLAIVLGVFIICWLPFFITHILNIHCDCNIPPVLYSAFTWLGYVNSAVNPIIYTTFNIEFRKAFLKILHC
- Procedure Summary: Dopamine D2 receptor (DRD2) small molecule agonists, cell-based qHTS assay (AID 1963594); further: on the % scale 0 is the no-effect control and ±100 the full control effect; nearly all actives have a fitted effect of over 35% in size
- Reported Conditions: HEK293-DRD2 cAMP HTRF, agonist mode, 30 min; series mostly up to 92.4 µM
Records with an inconclusive call do not appear. Active and inactive are the calls of the source. The call rests on the fitted dose curve.
Attribute Measured: activation

// solved cases for activation follow
compound=O=C1c2ccccc2C(=O)c2ccccc21 result="-2.1% [at 19 µM] (inactive)"
compound="Cc1ccc2c(c1)C1CN(C)CCC1N2 (stereo not drawn)" result="-2.85% [at 19 µM] (inactive)"
compound=Clc1c(Cl)c(Cl)c(Cl)c(Cl)c1Cl result="-1.37% [at 8.39 µM] (inactive)"
compound=CN(C)C(=S)[S-].CN(C)C(=S)[S-].[Cu+2] result="0.949% [at 19 µM] (inactive)"
compound=CC1=C(C(=O)O)N2C(=O)[C@@H](N)[C@H]2SC1 result="-15.4% [at 19 µM] (inactive)"

Query: Please list activation recorded for the compound CC(=O)OCC1=C(C(=O)O)N2C(=O)[C@@H](N)[C@H]2SC1
Reply: 5.76% [at 19 µM] (inactive)

Query: Please list activation recorded for the compound NCC(CC(=O)O)c1ccc(Cl)cc1 (stereo not drawn)
Reply: 0.37% [at 0.349 µM] (inactive)

Query: Please list activation recorded for the compound Clc1cc2c(cc1Cl)Oc1cc(Cl)c(Cl)cc1O2
Reply: 0.882% [at 0.349 µM] (inactive)
